Tested System: SMARCA4 (Homo sapiens, UniProt P51532)
Sequence (P51532 whole entry): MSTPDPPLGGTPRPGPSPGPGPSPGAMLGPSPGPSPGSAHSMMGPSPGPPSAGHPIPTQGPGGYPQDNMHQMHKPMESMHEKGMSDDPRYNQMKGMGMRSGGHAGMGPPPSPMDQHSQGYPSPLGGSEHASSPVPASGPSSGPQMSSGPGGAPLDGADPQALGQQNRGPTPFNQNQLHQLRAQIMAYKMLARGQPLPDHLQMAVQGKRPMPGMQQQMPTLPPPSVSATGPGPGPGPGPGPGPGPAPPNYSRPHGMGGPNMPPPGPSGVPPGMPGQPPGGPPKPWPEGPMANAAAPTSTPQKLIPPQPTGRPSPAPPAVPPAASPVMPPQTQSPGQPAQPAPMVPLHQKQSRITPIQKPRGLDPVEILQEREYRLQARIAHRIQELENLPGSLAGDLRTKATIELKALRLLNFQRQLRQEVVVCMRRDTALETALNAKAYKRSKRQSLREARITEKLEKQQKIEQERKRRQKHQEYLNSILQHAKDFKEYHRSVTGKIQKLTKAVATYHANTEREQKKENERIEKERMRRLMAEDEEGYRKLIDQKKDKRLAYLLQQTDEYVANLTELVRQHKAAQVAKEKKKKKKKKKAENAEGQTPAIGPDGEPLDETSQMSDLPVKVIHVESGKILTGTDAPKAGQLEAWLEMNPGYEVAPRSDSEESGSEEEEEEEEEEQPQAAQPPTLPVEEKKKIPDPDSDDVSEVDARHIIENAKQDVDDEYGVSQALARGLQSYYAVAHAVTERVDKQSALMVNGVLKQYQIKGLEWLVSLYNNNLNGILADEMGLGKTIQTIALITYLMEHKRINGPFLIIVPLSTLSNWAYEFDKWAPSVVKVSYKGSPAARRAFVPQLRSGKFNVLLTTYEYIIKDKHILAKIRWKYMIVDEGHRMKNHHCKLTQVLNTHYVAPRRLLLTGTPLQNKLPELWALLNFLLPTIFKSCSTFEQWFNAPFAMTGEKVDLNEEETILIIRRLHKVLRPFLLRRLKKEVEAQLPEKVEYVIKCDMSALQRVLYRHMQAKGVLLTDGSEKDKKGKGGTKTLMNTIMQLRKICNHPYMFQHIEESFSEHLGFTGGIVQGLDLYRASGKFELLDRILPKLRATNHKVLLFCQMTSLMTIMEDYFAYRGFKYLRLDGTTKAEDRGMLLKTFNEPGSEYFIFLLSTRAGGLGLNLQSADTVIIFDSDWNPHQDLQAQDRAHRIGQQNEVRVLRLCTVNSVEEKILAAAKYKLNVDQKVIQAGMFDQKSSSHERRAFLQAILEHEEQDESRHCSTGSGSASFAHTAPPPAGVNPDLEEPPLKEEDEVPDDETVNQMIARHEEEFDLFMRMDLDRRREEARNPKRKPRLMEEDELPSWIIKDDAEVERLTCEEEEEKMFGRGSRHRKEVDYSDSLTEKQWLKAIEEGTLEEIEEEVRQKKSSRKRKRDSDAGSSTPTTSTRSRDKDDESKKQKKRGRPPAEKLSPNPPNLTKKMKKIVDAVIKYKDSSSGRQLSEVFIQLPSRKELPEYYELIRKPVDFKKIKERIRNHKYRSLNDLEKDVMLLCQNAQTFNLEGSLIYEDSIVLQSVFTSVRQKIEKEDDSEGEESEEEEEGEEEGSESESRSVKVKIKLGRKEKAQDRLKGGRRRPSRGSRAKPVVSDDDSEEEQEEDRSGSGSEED
Measurement Protocol: HiBit assay in engineered HT1080 CRISPR knock-in cell, 6 hrs (B series), SMARCA4
Type: cell-based
Measurement Conditions: HT1080 CRISPR knock-in cells, 6 hrs incubation; read-out: SMARC A4 HT1080 HiBit DC50
List of DC50 values.

1. Cc1ncsc1-c1ccc([C@H](C)NC(=O)[C@@H]2C[C@@H](O)CN2C(=O)[C@H](C(C)C)n2cc(CCCCN3CCC(c4ccc5c(c4)-n4c(nc(=O)c6c(Cl)cccc64)C5(C)C)CC3)nn2)cc1 ... 100 to 500 nM
2. Cc1cc(C(C(=O)N2C[C@H](O)C[C@H]2C(=O)N[C@@H](CN2CCC(c3cccc4c3C(C)(C)c3nc(=O)c5c(Cl)cccc5n3-4)CC2)c2ccc(-c3scnc3C)cc2)C(C)C)on1 (some centres unmarked) [Compound B153] ... < 100 nM
3. Cc1ncsc1-c1ccc([C@H](C)NC(=O)[C@@H]2C[C@@H](O)CN2C(=O)[C@@H](NC(=O)CCCCn2cc(-c3ccc4c(c3)-n3c(nc(=O)c5c(Cl)cccc53)C4(C)C)cn2)C(C)(C)C)cc1 ... > 1000 nM

IN: Can you share its DC50? I mean this compound: Cc1ncsc1-c1ccc([C@H](C)NC(=O)[C@@H]2C[C@@H](O)CN2C(=O)[C@@H](c2cc(OCC#Cc3cccc4c3C(C)(C)c3nc(=O)c5c(Cl)cccc5n3-4)no2)C(C)C)cc1
OUT: 100 to 500 nM

IN: Can you share its DC50? I mean this compound: Cc1ncsc1-c1ccc([C@H](C)NC(=O)[C@@H]2C[C@@H](O)CN2C(=O)[C@@H](c2cc(OCCCCn3cc(-c4ccc5c(c4)-n4c(nc(=O)c6c(Cl)cccc64)C5(C)C)cn3)no2)C(C)C)cc1
OUT: 100 to 500 nM

---

Tested System: SMARCA2 (Homo sapiens)
Measurement Protocol: HiBit assay in engineered HT1080 CRISPR knock-in cell, 6 hrs (B series), SMARCA2
Assay type: cell-based
Measurement Conditions: HT-1080, HT1080 CRISPR knock-in cells, 6 hrs incubation; read-out: SMARC A2 HT1080 HiBit Dmax (%)
Measurement Name: Dmax

1. Cc1ncsc1-c1ccc([C@H](CCCCCn2cc(-c3ccc4c(c3)-n3c(nc(=O)c5c(Cl)cccc53)C4(C)C)cn2)NC(=O)[C@@H]2C[C@@H](O)CN2C(=O)[C@@H](NC(=O)C2(F)CC2)C(C)(C)C)cc1 ... 70 to 90%

Switching to the query record.
IN: Can you share its Dmax? I mean this molecule: Cc1ncsc1-c1ccc([C@H](C)NC(=O)[C@@H]2C[C@@H](O)CN2C(=O)[C@@H](c2cc(N3CCC(CN4CCC(c5ccc6c(c5)-n5c(nc(=O)c7c(Cl)cccc75)C6(C)C)CC4)CC3)no2)C(C)C)cc1
OUT: > 90%

---

Tested System: SMARCA2 (Homo sapiens)
Measurement Protocol: HiBiT assay for protein degradation, Hela SMARCA2-HiBiT cells (A series);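 note: 24 h compound treatment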
Type: cell-based
Design: Hela cells were genetically modified via CRISPR/Cas9 to fuse HiBiT to the carboxy terminus of SMARCA2; host or cells: HeLa (CRISPR/Cas9 HiBiT knock-in)
Measurement Conditions: Hela SMARCA2-HiBiT cells, 24 hours treatment; read-out: SMARC A2 Hela HiBit Dmax (%)
Measurement Name: Dmax

Worked examples follow.
1. Cc1ncsc1-c1ccc([C@H](C)NC(=O)[C@@H]2C[C@@H](O)CN2C(=O)[C@@H](NC(=O)[C@H]2CC[C@H](CN3CCC(c4ccc5c(c4)-n4c(nc(=O)c6c(Cl)cccc64)C54CCCCC4)CC3)CC2)C(C)(C)C)cc1 ... 70 to 90%
2. Cc1ncsc1-c1ccc([C@H](CN2CCOCC2)NC(=O)[C@@H]2C[C@@H](O)CN2C(=O)[C@H](C2CCOCC2)n2cc([C@H]3CC[C@H](CN4CCC(c5ccc6c(c5)-n5c(nc(=O)c7c(Cl)cccc75)C6(C)C)CC4)CC3)nn2)cc1 ... > 90%
3. Cc1ncsc1-c1ccc([C@H](CN2CCOCC2)NC(=O)[C@@H]2C[C@@H](O)CN2C(=O)[C@H](C2CCCCC2)n2cc([C@H]3CC[C@H](CN4CCC(c5ccc6c(c5)-n5c(nc(=O)c7c(Cl)cccc75)C65CCCCC5)C4)CC3)nn2)cc1 (stereo partly shown) ... > 90%
4. Cc1ncsc1-c1ccc([C@H](C)NC(=O)[C@@H]2C[C@@H](O)CN2C(=O)[C@@H](n2cc(CCCCN3CCC(c4ccc5c(c4)C4(CCCCC4)c4nc(=O)c6c(Br)cccc6n4-5)CC3)nn2)C(C)(C)C)cc1 ... > 90%
5. Cc1ncsc1-c1ccc([C@H](CN2CCC(O)CC2)NC(=O)[C@@H]2C[C@@H](O)CN2C(=O)[C@@H](n2cc([C@H]3CC[C@H](CN4CCC(c5ccc6c(c5)-n5c(nc(=O)c7c(Cl)cccc75)C65CCCCC5)CC4)CC3)nn2)C(C)(C)C)cc1 ... > 90%

IN: Can you share its Dmax? I mean this compound: Cc1ncsc1-c1ccc([C@H](C)NC(=O)[C@@H]2C[C@@H](O)CN2C(=O)[C@H](C2CCCCC2)n2cc([C@H]3CC[C@H](CN4CCC(c5ccc6c(c5)-n5c(nc(=O)c7c(Cl)cccc75)C6(C)C)CC4)CC3)nn2)cc1
OUT: > 90%

IN: Can you share its Dmax? I mean this compound: COC(=O)C[C@H](NC(=O)[C@@H]1C[C@@H](O)CN1C(=O)[C@@H](n1cc([C@H]2CC[C@H](CN3CCC(c4ccc5c(c4)-n4c(nc(=O)c6c(Cl)cccc64)C54CCCCC4)CC3)CC2)nn1)C(C)(C)C)c1ccc(-c2scnc2C)cc1
OUT: > 90%

IN: Can you share its Dmax? I mean this compound: Cc1ncsc1-c1ccc([C@H](CN2CCOCC2)NC(=O)[C@@H]2C[C@@H](O)CN2C(=O)[C@@H](n2cc([C@H]3CC[C@H](CN4CCC(c5ccc6c(c5)-n5c(nc(=O)c7c(Cl)cccc75)C65CCCCC5)CC4)CC3)nn2)C(C)(C)O)cc1
OUT: > 90%

IN: Can you share its Dmax? I mean this compound: Cc1ncsc1-c1ccc([C@H](CN2CCOCC2)NC(=O)[C@@H]2C[C@@H](O)CN2C(=O)[C@H](C2CCOCC2)n2cc([C@H]3CC[C@H](CN4CCC(c5ccc6c(c5)-n5c(nc(=O)c7c(Cl)cccc75)C65CCCCC5)CC4)CC3)nn2)cc1
OUT: > 90%

IN: Can you share its Dmax? I mean this compound: Cc1ncsc1-c1ccc([C@H](CN2CCOCC2)NC(=O)[C@@H]2C[C@@H](O)CN2C(=O)[C@@H](n2cc([C@H]3CC[C@H](CN4CCC(c5ccc6c(c5)-n5c(nc(=O)c7c(Br)cccc75)C65CCCCC5)CC4)CC3)nn2)C(C)(C)O)cc1
OUT: > 90%

IN: Can you share its Dmax? I mean this compound: Cc1ncsc1-c1ccc([C@H](CC(=O)O)NC(=O)[C@@H]2C[C@@H](O)CN2C(=O)[C@@H](n2cc([C@H]3CC[C@H](CN4CCC(c5ccc6c(c5)-n5c(nc(=O)c7c(Cl)cccc75)C65CCCCC5)CC4)CC3)nn2)C(C)(C)C)cc1
OUT: 70 to 90%

IN: Can you share its Dmax? I mean this compound: Cc1ncsc1-c1ccc([C@H](CCCCN2CCC(c3ccc4c(c3)-n3c(nc(=O)c5c(Cl)cccc53)C43CCOCC3)CC2)NC(=O)[C@@H]2C[C@@H](O)CN2C(=O)[C@@H](NC(=O)C2(F)CC2)C(C)(C)C)cc1
OUT: 50 to 69%

---

Tested System: SMARCA2 (Homo sapiens, UniProt P51531)
Sequence (P51531 whole entry): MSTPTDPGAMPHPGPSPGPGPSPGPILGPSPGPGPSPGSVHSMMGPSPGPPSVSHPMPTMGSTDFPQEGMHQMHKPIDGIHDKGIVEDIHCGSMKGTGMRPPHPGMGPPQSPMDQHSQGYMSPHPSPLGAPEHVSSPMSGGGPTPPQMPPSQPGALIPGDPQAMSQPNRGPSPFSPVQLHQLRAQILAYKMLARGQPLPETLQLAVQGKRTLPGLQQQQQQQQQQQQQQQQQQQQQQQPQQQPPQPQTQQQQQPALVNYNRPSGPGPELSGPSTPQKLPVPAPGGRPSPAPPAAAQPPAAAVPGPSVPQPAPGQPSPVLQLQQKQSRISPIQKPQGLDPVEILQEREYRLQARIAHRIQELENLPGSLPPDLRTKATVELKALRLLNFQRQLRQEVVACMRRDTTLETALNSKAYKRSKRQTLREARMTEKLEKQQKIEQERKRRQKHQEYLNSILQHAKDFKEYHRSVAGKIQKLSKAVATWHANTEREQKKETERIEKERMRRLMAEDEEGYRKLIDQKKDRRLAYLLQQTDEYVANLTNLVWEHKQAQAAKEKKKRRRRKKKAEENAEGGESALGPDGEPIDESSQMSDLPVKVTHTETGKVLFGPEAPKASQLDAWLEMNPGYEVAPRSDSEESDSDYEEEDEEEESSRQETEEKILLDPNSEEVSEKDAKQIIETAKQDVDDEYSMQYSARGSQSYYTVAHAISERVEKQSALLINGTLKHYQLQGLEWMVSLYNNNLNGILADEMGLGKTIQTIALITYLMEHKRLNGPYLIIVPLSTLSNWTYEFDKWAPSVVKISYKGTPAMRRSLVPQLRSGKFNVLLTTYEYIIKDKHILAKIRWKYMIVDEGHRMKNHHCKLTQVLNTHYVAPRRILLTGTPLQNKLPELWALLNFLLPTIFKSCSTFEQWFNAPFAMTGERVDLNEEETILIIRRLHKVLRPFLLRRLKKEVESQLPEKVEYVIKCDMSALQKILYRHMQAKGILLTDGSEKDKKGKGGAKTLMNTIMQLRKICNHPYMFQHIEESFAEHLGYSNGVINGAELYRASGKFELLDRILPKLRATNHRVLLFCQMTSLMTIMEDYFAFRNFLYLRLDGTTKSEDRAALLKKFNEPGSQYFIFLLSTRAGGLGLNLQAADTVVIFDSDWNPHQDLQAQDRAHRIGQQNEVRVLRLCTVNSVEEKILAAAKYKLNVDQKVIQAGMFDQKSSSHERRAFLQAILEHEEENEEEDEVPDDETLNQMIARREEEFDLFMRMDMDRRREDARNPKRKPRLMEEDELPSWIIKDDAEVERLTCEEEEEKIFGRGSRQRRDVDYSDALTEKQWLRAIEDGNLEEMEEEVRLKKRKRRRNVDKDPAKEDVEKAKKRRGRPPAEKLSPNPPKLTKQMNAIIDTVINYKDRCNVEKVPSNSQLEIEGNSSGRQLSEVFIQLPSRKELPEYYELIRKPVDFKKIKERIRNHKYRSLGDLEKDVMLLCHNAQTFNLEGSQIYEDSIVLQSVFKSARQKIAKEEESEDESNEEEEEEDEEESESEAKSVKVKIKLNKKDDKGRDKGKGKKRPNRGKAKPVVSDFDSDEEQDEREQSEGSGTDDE
Measurement Protocol: HiBit assay in engineered HT1080 CRISPR knock-in cell, 6 hrs (B series), SMARCA2
Type: cell-based
Measurement Conditions: HT-1080, HT1080 CRISPR knock-in cells, 6 hrs incubation; read-out: SMARC A2 HT1080 HiBit Dmax (%)
List of Dmax values.

1) C[C@H](NC(=O)[C@@H]1C[C@@H](O)CN1C(=O)[C@@H](n1cc([C@H]2CC[C@H](CN3CCN(c4ccc5c(c4)-n4c(nc(=O)c6c(Cl)cccc64)C5(C)C)CC3)CC2)nn1)C(C)(C)C)c1ccc(-c2scnc2C#CCN2CCOCC2)cc1 ... > 90%
2) Cc1ncsc1-c1ccc([C@H](C)NC(=O)[C@@H]2C[C@@H](O)CN2C(=O)[C@@H](c2cc(OCCCN3CCC(c4ccc5c(c4)C(C)(C)c4nc(=O)c6c(Cl)cccc6n4-5)CC3)no2)C(C)C)cc1 ... > 90%
3) Cc1ncsc1-c1ccc([C@H](C)NC(=O)[C@@H]2C[C@@H](O)CN2C(=O)[C@@H](c2cc(OCC3(CN4CCC(c5ccc6c(c5)-n5c(nc(=O)c7c(Cl)cccc75)C6(C)C)CC4)CC3)no2)C(C)C)cc1 ... > 90%

IN: Can you share its Dmax? I mean this compound: Cc1cc(C(C(=O)N2C[C@H](O)C[C@H]2C(=O)N[C@@H](CN2CCC(CN3CCC(c4cccc5c4C(C)(C)c4nc(=O)c6c(Cl)cccc6n4-5)CC3)CC2)c2ccc(-c3scnc3C)cc2)C(C)C)on1 (stereo partly drawn)
OUT: > 90%

IN: Can you share its Dmax? I mean this compound: Cc1ncsc1-c1ccc([C@H](C)NC(=O)[C@@H]2C[C@@H](O)CN2C(=O)[C@@H](c2cc(OCCn3cc(-c4ccc5c(c4)-n4c(nc(=O)c6c(Cl)cccc64)C5(C)C)cn3)no2)C(C)C)cc1
OUT: < 50%

IN: Can you share its Dmax? I mean this compound: Cc1ncsc1-c1ccc([C@H](C)NC(=O)[C@@H]2C[C@@H](O)CN2C(=O)[C@H](C(C)C)n2cc([C@H]3CC[C@H](CN4CCC(c5cccc6c5C(C)(C)c5nc(=O)c7c(Cl)cccc7n5-6)CC4)CC3)nn2)cc1
OUT: > 90%

IN: Can you share its Dmax? I mean this compound: Cc1ncsc1-c1ccc([C@H](C)NC(=O)[C@@H]2C[C@@H](O)CN2C(=O)[C@@H](NC(=O)CCCn2cc(-c3ccc4c(c3)-n3c(nc(=O)c5c(Cl)cccc53)C4(C)C)cn2)C(C)(C)C)cc1
OUT: < 50%

IN: Can you share its Dmax? I mean this compound: Cc1ncsc1-c1ccc([C@H](C)NC(=O)[C@@H]2C[C@@H](O)CN2C(=O)[C@H](C(C)C)n2cc([C@H]3CC[C@H](CN4CCC(c5ccc6c(c5)-n5c(nc(=O)c7c(Cl)cccc75)C6(C)C)CC4)CC3)nn2)cc1
OUT: > 90%

IN: Can you share its Dmax? I mean this compound: Cc1ncsc1-c1ccc([C@H](C)NC(=O)[C@@H]2C[C@@H](O)CN2C(=O)[C@@H](NC(=O)CN2CCC(c3ccc4c(c3)C(C)(C)c3nc(=O)c5c(Cl)cccc5n3-4)CC2)C(C)(C)C)cc1
OUT: > 90%
